Reference for the values: patent US7528140B2

Provide the reported pIC50 of each item.
# System under test: recombinant human GSK-3β (Homo sapiens)
# Assay: Measurement of GSK-3 enzyme activity inhibition (32P phosphorylation of phospho-glycogen synthase peptide-2)
# Test context: 20 μM ATP, 20 minutes at room temperature, read-out: GSK-3 enzyme inhibiting activity (IC50)
pIC50: −log10 of the molar value.

// returns reported pIC50 for input Cc1c(C#N)c2nc[nH]c(=S)c2n1CCCc1ccccc1
5.00 to 6.00

Follow-up item: CC(C)(C)OC(=O)NCCCn1c(-c2ccccc2)c(C#N)c2nc[nH]c(=O)c21
5.00 to 6.00

Follow-up item: N#Cc1cn(Cc2ccccc2)c2c(=S)[nH]cnc12
5.00 to 6.00

Follow-up item: N#Cc1c(C=Cc2ccccc2)[nH]c2c(=O)[nH]cnc12
5.00 to 6.00

Follow-up item: CCOC(=O)CCn1c(-c2ccccc2)c(C#N)c2nc[nH]c(=S)c21
5.00 to 6.00

Follow-up item: N#Cc1c(-c2ccccc2)n(CCn2c(=O)[nH]c3ccccc3c2=O)c2c(=S)[nH]cnc12
5.00 to 6.00

Follow-up item: N#Cc1c(-c2cccc(C(=O)O)c2)[nH]c2c(=S)[nH]cnc12
5.00 to 6.00

Follow-up item: N#Cc1c(-c2ccccc2)n(CCc2ccccc2)c2c(=S)[nH]cnc12
5.00 to 6.00

Follow-up item: Cc1ccc(N)c(C(=O)NCCn2c(-c3ccccc3)c(C#N)c3nc[nH]c(=S)c32)c1
7.00 to 7.52

----------
# System under test: recombinant human GSK-3β (Homo sapiens, UniProt P49841)
# Sequence (P49841 whole entry): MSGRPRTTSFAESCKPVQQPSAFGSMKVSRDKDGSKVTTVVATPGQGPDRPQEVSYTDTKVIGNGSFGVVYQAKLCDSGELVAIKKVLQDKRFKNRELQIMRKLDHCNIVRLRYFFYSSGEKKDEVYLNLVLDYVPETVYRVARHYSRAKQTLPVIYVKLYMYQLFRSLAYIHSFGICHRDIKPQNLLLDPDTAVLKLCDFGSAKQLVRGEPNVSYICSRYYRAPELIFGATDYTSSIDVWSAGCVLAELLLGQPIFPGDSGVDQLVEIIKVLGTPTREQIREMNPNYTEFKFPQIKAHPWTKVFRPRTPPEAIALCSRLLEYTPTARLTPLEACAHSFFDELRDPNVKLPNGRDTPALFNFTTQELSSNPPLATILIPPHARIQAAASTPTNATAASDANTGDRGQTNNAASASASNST
# Assay: Measurement of GSK-3 enzyme activity inhibition (32P phosphorylation of phospho-glycogen synthase peptide-2)
# Test context: 20 μM ATP, 20 minutes at room temperature, read-out: GSK-3 enzyme inhibiting activity (IC50)
pIC50: −log10 of the molar value.
Provide the reported pIC50 of each item.

// returns reported pIC50 for input CN(C(=O)CCn1c(-c2ccccc2)c(C#N)c2nc[nH]c(=S)c21)c1ccccc1 [3-0099]
5.00 to 6.00

Follow-up item: N#Cc1c(-c2ccccc2)n(CCCO)c2c(=O)[nH]cnc12 [1-0194]
5.00 to 6.00

Follow-up item: N#Cc1c(C2CC2)n(Cc2ccccc2)c2c(=O)[nH]cnc12 [1-0303]
5.00 to 6.00

Follow-up item: N#Cc1c(-c2ccccc2Br)[nH]c2c(=S)[nH]cnc12 [1-0751]
7.00 to 7.52

Follow-up item: CN(C)c1c(C#N)c2nc[nH]c(=S)c2n1CCNC(=O)c1ccc(F)cc1 [6-1029]
7.00 to 7.52

Follow-up item: N#Cc1c(-c2c(F)cccc2F)n(CCN)c2c(=S)[nH]cnc12 [1-0460]
5.00 to 6.00

Follow-up item: CC(C)(C)Cn1c(-c2ccccc2)c(C#N)c2nc[nH]c(=S)c21 [1-0129]
5.00 to 6.00

Follow-up item: N#Cc1c(-c2ccccc2)n(CC2CC2)c2c(=S)[nH]cnc12 [1-0275]
5.00 to 6.00

Follow-up item: CC(C)CCn1c(-c2ccccc2)c(C#N)c2nc[nH]c(=O)c21 [1-0113]
5.00 to 6.00

Follow-up item: N#Cc1c(C2CC2)n(CCC(=O)O)c2c(=S)[nH]cnc12 [4-0092]
7.52 to 8.00

Follow-up item: N#Cc1c(-c2ccccc2)n(CCC(=O)N2CCCCC2)c2c(=S)[nH]cnc12 [3-0152]
> 8.00

Follow-up item: COCCn1c(-c2ccccc2)c(C#N)c2nc[nH]c(=S)c21 [1-0208]
5.00 to 6.00

Follow-up item: CSCCCn1c(-c2ccccc2)c(C#N)c2nc[nH]c(=O)c21 [1-0263]
5.00 to 6.00

Follow-up item: CC(C)OCCCn1c(-c2cc(O)cc(O)c2)c(C#N)c2nc[nH]c(=S)c21 [1-0529]
7.52 to 8.00

Follow-up item: N#Cc1c(-c2ccccc2)n(CCc2nc(-c3ccccc3)no2)c2c(=S)[nH]cnc12 [1-0495]
5.00 to 6.00

Follow-up item: Cn1cccc1-c1c(C#N)c2nc[nH]c(=S)c2n1CCN [1-0459]
5.00 to 6.00

Follow-up item: CCOCCn1c(-c2ccccc2)c(C#N)c2nc[nH]c(=S)c21 [1-0215]
5.00 to 6.00

Follow-up item: N#Cc1c(NC2CC2)n(CCNC(=O)c2ccccc2)c2c(=S)[nH]cnc12 [6-0413]
7.52 to 8.00

Follow-up item: N#Cc1c(-c2ccccc2)n(CCN2C(=O)c3ccccc3C2=O)c2c(=S)[nH]cnc12 [1-0501]
5.00 to 6.00

----------
Provide the reported pIC50 of each item.
# System under test: recombinant human GSK-3β (Homo sapiens, UniProt P49841)
# Assay: Measurement of GSK-3 enzyme activity inhibition (32P phosphorylation of phospho-glycogen synthase peptide-2)
# Test context: 20 μM ATP, 20 minutes at room temperature, read-out: GSK-3 enzyme inhibiting activity (IC50)
pIC50: −log10 of the molar value.

// returns reported pIC50 for input COCCCn1c(-c2ccccc2)c(C#N)c2nc[nH]c(=O)c21
5.00 to 6.00

Follow-up item: N#Cc1c(-c2ccccc2)[nH]c2c(=O)[nH]cnc12
5.00 to 6.00

Follow-up item: CC(=O)OCCCn1c(-c2ccccc2)c(C#N)c2nc[nH]c(=O)c21
5.00 to 6.00

Follow-up item: N#Cc1c(-c2ccccc2)n(CCCOc2ccccc2)c2c(=S)[nH]cnc12
5.00 to 6.00

Follow-up item: CCCCCn1c(-c2ccccc2)c(C#N)c2nc[nH]c(=O)c21
5.00 to 6.00

Follow-up item: N#Cc1c(-c2ccccc2Br)[nH]c2c(=O)[nH]cnc12
5.00 to 6.00

Follow-up item: Cc1ccoc1-c1c(C#N)c2nc[nH]c(=S)c2n1CCNC(=O)C(F)(F)F
7.52 to 8.00

Follow-up item: N#Cc1c(-c2ccccc2)n(CCC(=O)N2CCOCC2)c2c(=S)[nH]cnc12
7.00 to 7.52

Follow-up item: N#Cc1c(-c2ccccc2)n(CCNCc2ccccc2)c2c(=S)[nH]cnc12
5.00 to 6.00

Follow-up item: CN(CCn1c(-c2ccccc2)c(C#N)c2nc[nH]c(=S)c21)C(=O)C(F)(F)F
7.00 to 7.52

Follow-up item: CC(C)CCn1c(-c2ccccc2)c(C#N)c2nc[nH]c(=S)c21
5.00 to 6.00

Follow-up item: N#Cc1c(-c2ccccc2)n(CCNC(=O)Nc2cccc(C(=O)O)c2)c2c(=S)[nH]cnc12
7.00 to 7.52

Follow-up item: N#Cc1c(-c2cccc(O)c2)[nH]c2c(=S)[nH]cnc12
7.52 to 8.00

Follow-up item: COc1ccccc1-c1[nH]c2c(=O)[nH]cnc2c1C#N
5.00 to 6.00

Follow-up item: N#Cc1c(-c2ccccc2)n(CCOc2ccccc2)c2c(=S)[nH]cnc12
5.00 to 6.00

Follow-up item: N#Cc1c(-c2ccccc2)n(CCC(=O)N2CCC(C(=O)O)CC2)c2c(=S)[nH]cnc12
> 8.00

Follow-up item: Cn1cccc1-c1c(C#N)c2nc[nH]c(=S)c2n1CCNC(=O)C(F)(F)F
7.00 to 7.52

Follow-up item: N#Cc1c(-c2ccccc2)n(CCCOC(=O)c2ccco2)c2c(=O)[nH]cnc12
5.00 to 6.00

Follow-up item: N#Cc1c(N2CCCC2)n(CCNC(=O)c2ccc(F)cc2)c2c(=S)[nH]cnc12
7.00 to 7.52

----------
# System under test: recombinant human GSK-3β (Homo sapiens, UniProt P49841)
# Assay: Measurement of GSK-3 enzyme activity inhibition (32P phosphorylation of phospho-glycogen synthase peptide-2)
# Test context: 20 μM ATP, 20 minutes at room temperature, read-out: GSK-3 enzyme inhibiting activity (IC50)
Readout: IC50

recombinant human GSK-3β (Homo sapiens, UniProt P49841) / IC50 / N#Cc1c(-c2ccccc2)n(CCNC(=O)c2ccccc2)c2c(=S)[nH]cnc12 : value?
30 to 100 nM

Follow-up item: N#Cc1c(-c2ccccc2)n(CCC(=O)N2CCCC2)c2c(=S)[nH]cnc12
30 to 100 nM

Follow-up item: N#Cc1c(-c2ccco2)n(CCC(=O)N2CCCCC2)c2c(=S)[nH]cnc12
< 10 nM

Follow-up item: N#Cc1c(-c2ccccc2N)[nH]c2c(=S)[nH]cnc12
1000 to 10000 nM

Follow-up item: Cc1ccoc1-c1c(C#N)c2nc[nH]c(=O)c2n1CCNC(=O)C(F)(F)F
1000 to 10000 nM

Follow-up item: CCNC(=O)CCn1c(-c2ccccc2)c(C#N)c2nc[nH]c(=S)c21
30 to 100 nM

Follow-up item: N#Cc1c(-c2ccccc2)n(CCCc2ccccc2)c2c(=O)[nH]cnc12
1000 to 10000 nM

Follow-up item: CCOC(=O)CCCn1c(-c2ccccc2)c(C#N)c2nc[nH]c(=O)c21
1000 to 10000 nM

Follow-up item: N#Cc1c(-c2ccco2)n(CCNC(=O)C(F)(F)F)c2c(=S)[nH]cnc12
30 to 100 nM
